molecular target: human CYP1A2, CYP1A2 (gene 1544) (UniProt P05177); test: NVS_ADME_hCYP1A2: NovaScreen (NVS) CYP450-related Enzyme Activity (ADME) Assay for human CYP1A2 (AID 2283102)
Sequence (P05177 whole entry, looked up): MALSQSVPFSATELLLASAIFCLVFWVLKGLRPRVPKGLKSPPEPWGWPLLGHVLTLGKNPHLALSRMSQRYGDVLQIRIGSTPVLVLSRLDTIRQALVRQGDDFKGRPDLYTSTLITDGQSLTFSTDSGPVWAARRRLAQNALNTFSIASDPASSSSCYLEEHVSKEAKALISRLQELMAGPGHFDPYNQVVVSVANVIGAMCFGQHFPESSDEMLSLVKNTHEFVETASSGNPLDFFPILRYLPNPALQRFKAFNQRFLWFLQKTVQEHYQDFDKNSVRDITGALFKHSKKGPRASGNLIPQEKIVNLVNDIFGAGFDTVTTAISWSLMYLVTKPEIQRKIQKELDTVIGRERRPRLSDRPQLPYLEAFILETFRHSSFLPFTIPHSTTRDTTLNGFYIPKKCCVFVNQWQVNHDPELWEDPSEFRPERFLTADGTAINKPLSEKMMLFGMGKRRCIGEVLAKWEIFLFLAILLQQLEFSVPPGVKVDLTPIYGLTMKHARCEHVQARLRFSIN
Active and inactive are the calls of the source. The calls were made as follows: active = hit-call score of the fitted dose curve at least 0.9, where 1 is the maximum; inconclusive = response in the unintended direction; inactive = score below 0.9.
Labels: active, inactive

>  <given smiles>
CC1=C(/C=C/C(C)=C/C=C/C(C)=C/C(=O)O)C(C)(C)CCC1

>  <assigned label>
inactive

$$$$
>  <given smiles>
CCCOc1sc(C(=O)N2CCC(c3cc(CN)ccc3F)CC2)c(C)c1Br

>  <assigned label>
active

$$$$
>  <given smiles>
Oc1cc2ccccc2c2ccccc12

>  <assigned label>
active

$$$$
>  <given smiles>
CCN(CC)CCNc1ccc(CNC=O)c2sc3ccc(OC)cc3c(=O)c12

>  <assigned label>
active

$$$$
